Data origin: PubChem BioAssay (NCATS)

ASSAY METHOD TEXT: Quantitative High-Throughput drug screen in 47 multiple myeloma cell lines against the NCATS MIPE library collection: JIM1_ECACC cell viability assay (AID 1918964; also: potency is read from the fitted curve at half-maximal effect)
RECORDED CONDITIONS: JIM1 myeloma viability, CellTiter-Glo ATP luminescence, 48 h; series mostly up to 45.8 µM
Inconclusive results are not listed. Activity calls are given as the source filed them. Calls follow the shape of the dose curve; as a rule, active = well fitted cell-killing curve with a large enough effect; inconclusive = small, poorly fitted or top-dose-only effect, or effect the other way; inactive = no such curve, though single readings can be large or run the other way.
ASSAY READOUT: Potency

Field: example entries. Status: answers known.
INSERT INTO assay_data (compound, endpoint_value) VALUES
  ('OC[C@H]1O[C@@H](O[C@H]2[C@@H](O)[C@@](O)(CO)O[C@@H]2CO)[C@H](O)[C@@H](O)[C@@H]1O', 'inactive'),
  ('CC(=O)OCC(=O)[C@@]1(O)CC[C@H]2[C@@H]3CCC4=CC(=O)C=C[C@]4(C)[C@@H]3[C@@H](O)C[C@@]21C', 'inactive'),
  ('O=S(=O)(NCCNCC=Cc1ccc(Br)cc1)c1cccc2cnccc12', '4.18 µM (active)'),
  ('Cc1cccc(Nc2nc(N[C@@H]3CCCC[C@H]3N)ncc2C(N)=O)c1', '5.9 µM (active)'),
  ('CC(C)CN(C[C@@H](O)[C@H](Cc1ccccc1)NC(=O)O[C@H]1CO[C@H]2OCC[C@H]21)S(=O)(=O)c1ccc(N)cc1', 'inactive'),
  ('NC(=O)c1ccc(N(C(N)=O)c2c(F)cccc2F)nc1-c1ccc(F)cc1F', 'inactive'),
  ('Cc1[nH]c(C=C2C(=O)Nc3ccc(S(=O)(=O)N(C)c4cccc(Cl)c4)cc32)c(C)c1C(=O)N1CCN(C)CC1', '9.35 µM (active)'),
  ('CCOc1ccccc1N=Nc1c(C)[nH]n(-c2nc(-c3ccccc3)cs2)c1=O', '1.66 µM (active)');

Which Potency is listed for Nc1ncnc2c1c(-c1cccc(OCc3ccccc3)c1)cn2C1CC(CN2CCC2)C1 (centres undefined) ?
0.469 µM (active)

Another compound to look at: Oc1ccc(C=Cc2cc(O)cc(O)c2)cc1
inactive

Another compound to look at: O=C(CO)N1CCC(c2[nH]nc(-c3ccc(Cl)cc3)c2-c2ccncn2)CC1
inactive

Another compound to look at: C[C@@H]1CCO[C@H]2Cn3cc(C(=O)NCc4ccc(F)cc4F)c(=O)c(O)c3C(=O)N12
23.5 µM (active)

Another compound to look at: OC[C@H]1O[C@@H](OCCc2ccc(O)cc2)[C@H](O)[C@@H](O)[C@H]1O
inactive

Another compound to look at: CC(C)c1onc(-c2c(Cl)cccc2Cl)c1COc1ccc(C=Cc2cccc(C(=O)O)c2)c(Cl)c1
inactive

Another compound to look at: N#CC(c1ccnc(NCCc2cccnc2)n1)c1nc2ccccc2s1 (centres undefined)
5.9 µM (active)

Another compound to look at: CCC(C)SSc1ncc[nH]1 (centres undefined)
5.9 µM (active)

Another compound to look at: Cc1ccc(S(=O)(=O)Nc2nc3ccccc3nc2Nc2ccc3nsnc3c2)cc1
0.182 µM (active)

Another compound to look at: Cc1ccc(C(=O)N(CCCN)[C@@H](c2nc3cc(Cl)ccc3c(=O)n2Cc2ccccc2)C(C)C)cc1
inactive

Another compound to look at: COc1cc2nccc(Oc3ccc(NC(=O)Nc4ccc(F)cc4F)c(F)c3)c2cc1OC
inactive

====

ASSAY METHOD TEXT: Identifying Small Molecule Inhibitors of Pancreatic Cancer Stem Cells (A278, Adherent) (AID 1259361);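 also: viability read after 48 h compound exposure; nearly all actives have a fitted effect of over 35% in size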
RECORDED CONDITIONS: series mostly up to 46.1 µM
Excerpt: Progenitor-like cancer cells, often referred to as cancer stem cells (CSC), are believed to be the drivers of therapeutic resistance and rapid recurrence. CSCs are postulated to reside in specific niches characterized by low oxygen tension, limited nutrient supply, and high redox load. Selectively targeting CSC, alone or in combination with cytotoxic agents, as a means to produce durable remissions is an appealing concept. […]
Results filed as inconclusive are left out. Calls of active or inactive are those of the source. Calls come from the whole dose curve; as a rule, active = well fitted cell-killing curve with a large enough effect; inconclusive = small, poorly fitted or top-dose-only effect; inactive = flat fitted curve, though single readings scatter.
Bench note: report the call from true for active, false for inactive

Record excerpt, results attached:
INSERT INTO assay_data (given_smiles, class_assignment) VALUES
  ('CC(O)=C(C#N)C(=O)Nc1ccc(C(F)(F)F)cc1', 'true'),
  ('COc1ccc2c(c1)CC[C@H]1[C@@H]2CC[C@]2(C)[C@@H](NCCCCCCN3C(=O)C=CC3=O)CC[C@H]12', 'true'),
  ('COc1nc(C)cnc1NS(=O)(=O)c1cccnc1-c1ccc(-c2nnco2)cc1', 'false');

Hello, I am checking results. What call was entered for CC1=C[C@@H]2[C@@H]([C@@H](O)C[C@@]3(C)[C@H]2C[C@@H](C)[C@]3(O)C(=O)CO)[C@@]2(C)Cc3cnn(-c4ccccc4)c3C=C12 ?
true

Another compound to look at: COc1cc2c(cc1OC)CC(=O)N(CCCN(C)C[C@H]1Cc3cc(OC)c(OC)cc31)CC2
false

Another compound to look at: O=C(Nc1ccc(OC(F)(F)F)cc1)c1sccc1NCc1ccnc2ccccc12
true

Another compound to look at: Cc1ccc(C(=O)N(CCCN)[C@@H](c2nc3cc(Cl)ccc3c(=O)n2Cc2ccccc2)C(C)C)cc1
true

Another compound to look at: CC(C)Oc1cc(Nc2nc(N[C@@H](C)c3ccc(F)cn3)ncc2Cl)[nH]n1
true

====

ASSAY METHOD TEXT: Quantitative High-Throughput drug screen in 47 multiple myeloma cell lines against the NCATS MIPE library collection: L363_DSMZ cell viability assay (AID 1918984); also: nearly all actives have a fitted effect of over 40% in size
RECORDED CONDITIONS: L363 myeloma viability, CellTiter-Glo ATP luminescence, 48 h
Records with an inconclusive call do not appear. Active and inactive are the calls of the source. Calls follow the shape of the dose curve; as a rule, active = well fitted cell-killing curve with a large enough effect; inconclusive = small, poorly fitted or top-dose-only effect, or effect the other way; inactive = no such curve, though single readings can be large or run the other way.
Bench note: report the call from Y for active, N for inactive

INSERT INTO assay_data (compound, class_assignment) VALUES
  ('O=S(=O)(NCCNCC=Cc1ccc(Br)cc1)c1cccc2cnccc12', 'Y'),
  ('COc1ccc(CCN(C)CCCOc2ccc(S(=O)(=O)c3[nH]c4ccccc4c3C(C)C)cc2)cc1OC', 'N'),
  ('Cc1ccc(S(=O)(=O)Nc2nc3ccccc3nc2Nc2ccc3nsnc3c2)cc1', 'Y');

Hello, I am checking results. What call was entered for Cc1cn([C@@H]2C[C@@H](O)[C@H](CO)O2)c(=O)[nH]c1=O ?
N

Another compound to look at: Fc1ccc(C(c2ccc(F)cc2)N2CCN(CC=Cc3ccccc3)CC2)cc1
N

====

ASSAY METHOD TEXT: qHTS of pediatric cancer cell lines to identify multiple opportunities for drug repurposing: Primary screen for Rh18 cells (AID 1347102); also: nearly all actives have a fitted effect of over 65% in size
RECORDED CONDITIONS: Rh18 rhabdomyosarcoma viability, CellTiter-Glo luminescence, 48 h; series mostly up to 46 µM
Inconclusive results are not listed. Calls of active or inactive are those of the source. The call rests on the fitted dose curve; in most records, active means well fitted cell-killing curve with a large enough effect; inconclusive means small, poorly fitted or top-dose-only effect; inactive means flat fitted curve, though single readings scatter.
Bench note: report the call from TRUE = active, FALSE = inactive

Record excerpt, results attached:
INSERT INTO measurements (compound, class_assignment) VALUES
  ('C[C@H](c1ccc(F)cc1CCCC(=O)O)N(c1cc(F)ccc1F)S(=O)(=O)c1ccc(Cl)cc1', 'FALSE'),
  ('CCC=CC[C@H]1C(=O)CC[C@@H]1CC(=O)OC', 'FALSE'),
  ('C[C@@H]1[C@H](C)CC[C@]2(C(=O)O)CC[C@]3(C)C(=CC[C@@H]4[C@@]5(C)CC[C@H](O)C(C)(C)[C@H]5CC[C@]43C)[C@@H]12', 'FALSE'),
  ('C[C@@]1(c2cc(-c3cncnc3)c(F)cc2F)CCSC(N)=N1', 'FALSE'),
  ('O=C(NC[C@H](O)CO)c1ccncc1Nc1ccc(I)cc1F', 'TRUE');

Hello, I am checking results. What call was entered for CC1=C(C(=O)Nc2cc3cn[nH]c3cc2F)C(c2ccc(C(F)(F)F)cc2)CC(=O)N1 (stereo not given) ?
FALSE

Another compound to look at: O=C1Nc2ccc(I)cc2C1=Cc1cc(Br)c(O)c(Br)c1
FALSE

Another compound to look at: O=C(Nc1ccc(OC(F)(F)F)cc1)c1sccc1NCc1ccnc2ccccc12
FALSE

Another compound to look at: CN1CCc2c(n(Cc3ccc(C(=O)NO)cc3)c3ccccc23)C1
TRUE

Another compound to look at: OC[C@H]1O[C@@H](Oc2ccc(O)cc2)[C@H](O)[C@@H](O)[C@H]1O
FALSE

====

ASSAY METHOD TEXT: Quantitative High-Throughput drug screen in 47 multiple myeloma cell lines against the NCATS MIPE library collection: JIM3_ECACC cell viability assay (AID 1918963; also: nearly all actives have a fitted effect of over 35% in size; also: potency is read from the fitted curve at half-maximal effect)
RECORDED CONDITIONS: JIM3 myeloma viability, CellTiter-Glo ATP, 48 h; series mostly up to 45.8 µM
Description: PI: Beverly A. Mock Ph.D. Laboratory of Cancer Biology and Genetics, Center for Cancer Research, National Cancer Institute, National Institute of Health, Bethesda, Maryland […] 5; Detector; 425V; Luminescence; Viewlux PerkinElmer. […] 1. […] Briefly, the corresponding myeloma cell lines were screened in 1,536-well plates with 500 cells, 5-uL per well for inhibition of cell viability (assessed by measuring ATP levels with CellTiterGlo). […]
Results filed as inconclusive are left out. Calls of active or inactive are those of the source. Calls follow the shape of the dose curve; as a rule, active = well fitted cell-killing curve with a large enough effect; inconclusive = small, poorly fitted or top-dose-only effect; inactive = no such curve, though single readings can be large or run the other way.
ASSAY READOUT: Potency

INSERT INTO assay_data (compound, assay_readout, endpoint_value) VALUES
  ('Cc1ccc2c(c1)c1c(n2CCc2ccc(C)nc2)CCN(C)C1', 'Potency', 'inactive'),
  ('O=C(c1ccc(F)c(F)c1Nc1ccc(I)cc1F)N1CC(O)([C@H]2CCCCN2)C1', 'Potency', '14.8 µM (active)'),
  ('Cc1[nH]c(C=C2C(=O)Nc3ccc(S(=O)(=O)N(C)c4cccc(Cl)c4)cc32)c(C)c1C(=O)N1CCN(C)CC1', 'Potency', '20.9 µM (active)'),
  ('CCN(CCO)CCCOc1ccc2c(Nc3cc(CC(=O)Nc4cccc(F)c4)[nH]n3)ncnc2c1', 'Potency', 'inactive'),
  ('CN(C)N=Nc1nc[nH]c1C(N)=O', 'Potency', 'inactive');

Which Potency is listed for COc1ccc2c(c1)c(C1=C(c3c[nH]c4ccccc34)C(=O)NC1=O)cn2CCCN(C)C ?
13.2 µM (active)

Another compound to look at: CN1CCN(c2ncc(-c3cc(Cl)cc(Cl)c3Cl)c(N)n2)CC1
inactive

Another compound to look at: C[C@@]1(C(=O)Nc2ccc(F)nc2)CCCN1c1nc(Nc2cc(C3CC3)[nH]n2)c2cccn2n1
0.0148 µM (active)

Another compound to look at: C[C@H](c1ccc(F)cc1CCCC(=O)O)N(c1cc(F)ccc1F)S(=O)(=O)c1ccc(Cl)cc1
26.4 µM (active)
